Assay: Half life in CD1 mouse at 10 mg/kg, ip
Type: ADME, organism-based
Parameters: dose 10 mg/kg, route intraperitoneal
Conditions: in vivo

Record Smiles	half-life
O=c1cc(-c2ccccc2F)[nH]c2cc3c(cc12)OCO3	7.3 h

* * *

Molecular target: MAO-A (Homo sapiens)
Sequence (P21397 whole entry): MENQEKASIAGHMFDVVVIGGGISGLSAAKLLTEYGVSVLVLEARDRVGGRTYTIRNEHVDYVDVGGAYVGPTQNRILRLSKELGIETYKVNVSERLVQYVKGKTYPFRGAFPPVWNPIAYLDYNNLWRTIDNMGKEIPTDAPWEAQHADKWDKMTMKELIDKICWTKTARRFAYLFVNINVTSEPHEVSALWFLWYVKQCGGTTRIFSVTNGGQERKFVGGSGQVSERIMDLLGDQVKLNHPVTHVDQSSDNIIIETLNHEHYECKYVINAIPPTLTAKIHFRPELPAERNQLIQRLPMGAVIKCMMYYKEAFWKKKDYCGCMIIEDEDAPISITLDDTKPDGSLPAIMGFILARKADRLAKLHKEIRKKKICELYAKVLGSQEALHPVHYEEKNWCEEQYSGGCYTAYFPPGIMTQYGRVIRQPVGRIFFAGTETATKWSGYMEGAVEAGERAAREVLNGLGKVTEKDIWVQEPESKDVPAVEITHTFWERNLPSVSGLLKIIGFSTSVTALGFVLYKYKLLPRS
Assay: Inhibition of human MAO-A at 10 uM by enzyme assay
Readout: inhibition at 10 µM (%)

Record Smiles	Target Or Test System	Observed Measurement
O=c1cc(-c2ccccc2F)[nH]c2cc3c(cc12)OCO3	MAO-A (Homo sapiens)	52
